Recorded values, source ChEMBL document CHEMBL1629527.

For each of the compounds below, state its MFC.
System: Candida dubliniensis
Assay: Antifungal activity against Candida dubliniensis after 48 to 72 hrs
Type: functional
Settings: Candida dubliniensis
// note: answer is a bare numeric in µg/mL

Field: MFC (Candida dubliniensis). Entry: "CCCCCc1cc[n+](CCCCCCCCCCCC[n+]2ccc(CCCCC)c(C)c2)cc1C.[Cl-].[Cl-]"
0.79

Field: MFC (Candida dubliniensis). Entry: "CCCCCc1cc[n+](CCCCCCCCCCCC[n+]2ccc(CCCCC)cc2)cc1.[Cl-].[Cl-]"
0.75

Field: MFC (Candida dubliniensis). Entry: "C=CCCCc1cc[n+](CCCCCCCCCCCC[n+]2ccc(CCCC=C)cc2)cc1.[Cl-].[Cl-]"
1.47

Field: MFC (Candida dubliniensis). Entry: "CCCCCCc1cc[n+](CCCCCCCCCCCC[n+]2ccc(CCCCCC)cc2)cc1.[Cl-].[Cl-]"
0.79
